Where these numbers come from: patent US20220170930A1

Let's look at some compounds and their measured concentration at 2 h.
- ASSAY_SUMMARY: in vivo
- CONDITION_INFO: mouse, ip, 0.5 mg/kg
ATTRIBUTE_MEASURED: concentration at 2 h (ng/g)

{"columns": ["COMPOUND_STRING", "NUMERIC_RESULT"],
 "data": [
  ["O=C1Nc2ccc(I)cc2/C1=C/c1cc(Br)c(O)c(Br)c1", 81],
  ["O=c1cc(-c2ccccc2)c2c(O)cc(O)cc2o1", 9.48]
]}

###

- ASSAY_SYSTEM: full-length mHTT (flHTT-Q73) (Homo sapiens, UniProt P42858, INS38QQQQQQQQQQQQQQQQQQQQQQQQQQQQQQQQQQQQQQQQQQQQQQQQQQQQ)
- Construct: LC3B, full-length mHTT (flHTT-Q73) and full-length HTT-Q23 (flHTT-Q23); protein A (N, cleaved yes); made in house; host or cells: human embryonic kidney E293 cells
- Sequence (P42858 with tags, fused parts or gaps with the stated changes): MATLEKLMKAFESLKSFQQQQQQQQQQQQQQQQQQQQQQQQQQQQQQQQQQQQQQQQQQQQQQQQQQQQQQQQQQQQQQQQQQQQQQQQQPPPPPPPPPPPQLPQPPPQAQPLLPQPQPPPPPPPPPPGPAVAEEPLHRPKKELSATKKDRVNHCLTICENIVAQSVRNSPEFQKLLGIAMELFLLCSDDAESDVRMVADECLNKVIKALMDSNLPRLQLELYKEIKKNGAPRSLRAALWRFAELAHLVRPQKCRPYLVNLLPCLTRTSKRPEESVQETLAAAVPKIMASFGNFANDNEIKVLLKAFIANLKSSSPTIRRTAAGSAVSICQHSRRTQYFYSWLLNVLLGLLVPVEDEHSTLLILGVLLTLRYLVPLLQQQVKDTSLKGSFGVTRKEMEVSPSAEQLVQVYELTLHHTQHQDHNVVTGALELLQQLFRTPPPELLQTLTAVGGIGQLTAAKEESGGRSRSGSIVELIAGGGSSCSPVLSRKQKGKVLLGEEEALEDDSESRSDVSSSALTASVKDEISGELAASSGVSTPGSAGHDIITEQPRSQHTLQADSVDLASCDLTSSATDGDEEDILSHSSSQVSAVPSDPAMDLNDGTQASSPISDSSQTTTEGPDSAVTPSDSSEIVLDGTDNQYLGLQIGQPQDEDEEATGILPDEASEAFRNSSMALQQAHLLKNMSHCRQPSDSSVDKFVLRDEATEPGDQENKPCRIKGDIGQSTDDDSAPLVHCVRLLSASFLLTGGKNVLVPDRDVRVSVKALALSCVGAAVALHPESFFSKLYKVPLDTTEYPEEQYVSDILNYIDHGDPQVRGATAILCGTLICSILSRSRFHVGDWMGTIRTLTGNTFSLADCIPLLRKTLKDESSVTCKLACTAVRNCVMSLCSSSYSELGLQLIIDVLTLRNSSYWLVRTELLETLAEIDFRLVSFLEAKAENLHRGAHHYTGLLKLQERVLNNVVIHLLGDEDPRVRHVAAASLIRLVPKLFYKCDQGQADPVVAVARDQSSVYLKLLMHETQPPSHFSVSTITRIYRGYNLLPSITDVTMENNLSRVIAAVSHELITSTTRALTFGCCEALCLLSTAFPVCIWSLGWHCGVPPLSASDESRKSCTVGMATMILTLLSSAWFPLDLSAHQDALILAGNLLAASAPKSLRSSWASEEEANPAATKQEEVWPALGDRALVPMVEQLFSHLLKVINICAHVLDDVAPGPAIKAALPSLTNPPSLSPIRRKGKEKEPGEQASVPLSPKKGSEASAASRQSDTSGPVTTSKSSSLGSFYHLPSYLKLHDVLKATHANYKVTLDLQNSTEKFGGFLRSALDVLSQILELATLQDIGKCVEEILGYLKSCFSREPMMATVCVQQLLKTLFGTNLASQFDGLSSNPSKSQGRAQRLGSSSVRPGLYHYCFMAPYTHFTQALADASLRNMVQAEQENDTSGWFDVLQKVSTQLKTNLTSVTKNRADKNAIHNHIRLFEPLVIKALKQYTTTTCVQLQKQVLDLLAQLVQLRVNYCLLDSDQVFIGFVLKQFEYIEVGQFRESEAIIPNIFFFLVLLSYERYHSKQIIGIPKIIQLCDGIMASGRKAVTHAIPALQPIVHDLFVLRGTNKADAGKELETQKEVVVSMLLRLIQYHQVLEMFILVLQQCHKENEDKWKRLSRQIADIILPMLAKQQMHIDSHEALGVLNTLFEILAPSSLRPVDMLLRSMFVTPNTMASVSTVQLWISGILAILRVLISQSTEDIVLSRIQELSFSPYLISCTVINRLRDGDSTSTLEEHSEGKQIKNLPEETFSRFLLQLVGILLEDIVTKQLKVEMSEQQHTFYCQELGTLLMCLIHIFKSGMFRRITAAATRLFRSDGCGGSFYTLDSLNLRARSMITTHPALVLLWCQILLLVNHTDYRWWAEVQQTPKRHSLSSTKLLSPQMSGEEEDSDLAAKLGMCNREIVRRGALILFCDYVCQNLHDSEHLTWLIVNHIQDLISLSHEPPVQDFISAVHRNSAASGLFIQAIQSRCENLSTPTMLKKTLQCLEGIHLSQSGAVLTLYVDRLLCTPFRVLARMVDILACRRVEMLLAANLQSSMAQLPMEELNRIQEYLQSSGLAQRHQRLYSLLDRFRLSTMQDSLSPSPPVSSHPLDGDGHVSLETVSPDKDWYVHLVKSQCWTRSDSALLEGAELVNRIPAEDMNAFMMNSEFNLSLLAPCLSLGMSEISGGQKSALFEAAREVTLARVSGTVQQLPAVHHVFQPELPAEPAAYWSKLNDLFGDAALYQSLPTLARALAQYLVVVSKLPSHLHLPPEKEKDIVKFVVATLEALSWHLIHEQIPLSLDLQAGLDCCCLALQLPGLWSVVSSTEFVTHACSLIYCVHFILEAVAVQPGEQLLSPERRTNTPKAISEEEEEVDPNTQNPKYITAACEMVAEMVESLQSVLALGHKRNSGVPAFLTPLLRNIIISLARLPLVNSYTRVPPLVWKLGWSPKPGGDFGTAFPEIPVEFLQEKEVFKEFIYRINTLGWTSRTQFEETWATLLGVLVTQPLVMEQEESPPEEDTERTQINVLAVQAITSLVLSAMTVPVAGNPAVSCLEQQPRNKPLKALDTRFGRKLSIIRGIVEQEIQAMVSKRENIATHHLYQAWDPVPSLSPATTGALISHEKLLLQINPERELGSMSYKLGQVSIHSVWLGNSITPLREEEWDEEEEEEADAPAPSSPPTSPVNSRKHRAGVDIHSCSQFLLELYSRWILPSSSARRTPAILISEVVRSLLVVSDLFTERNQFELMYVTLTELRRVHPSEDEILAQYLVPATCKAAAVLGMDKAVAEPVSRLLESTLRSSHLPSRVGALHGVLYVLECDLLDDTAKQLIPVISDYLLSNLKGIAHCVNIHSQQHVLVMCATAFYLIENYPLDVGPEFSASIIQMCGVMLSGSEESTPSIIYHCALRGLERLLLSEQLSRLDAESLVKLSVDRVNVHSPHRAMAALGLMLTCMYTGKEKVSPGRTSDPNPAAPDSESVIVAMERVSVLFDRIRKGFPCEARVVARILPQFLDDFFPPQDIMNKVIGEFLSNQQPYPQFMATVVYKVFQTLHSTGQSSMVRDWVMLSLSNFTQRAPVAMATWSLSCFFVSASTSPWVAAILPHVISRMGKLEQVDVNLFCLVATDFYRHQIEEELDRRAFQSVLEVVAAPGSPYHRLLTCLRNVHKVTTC
- ASSAY_SUMMARY: OI-RD affinity reaction parameters with flHTT-Q73
- Assay type: binding
- CONDITION_INFO: OI-RD, flHTT-Q73; read-out: Kd
ATTRIBUTE_MEASURED: Kd (nM)

{"columns": ["COMPOUND_STRING", "MEASURE_UNIT", "NUMERIC_RESULT"],
 "data": [
  ["O=C1Nc2ccc(I)cc2/C1=C/c1cc(Br)c(O)c(Br)c1", "nM", 14.7]
]}
